- study.target: T1, Human CD19-his protein (human, UniProt P15391 20-291)
- T1 construct: bought protein; also called recombinant human CD19-His; CD19 full-length protein; not shown: His tag
- T1 sequence (looked up): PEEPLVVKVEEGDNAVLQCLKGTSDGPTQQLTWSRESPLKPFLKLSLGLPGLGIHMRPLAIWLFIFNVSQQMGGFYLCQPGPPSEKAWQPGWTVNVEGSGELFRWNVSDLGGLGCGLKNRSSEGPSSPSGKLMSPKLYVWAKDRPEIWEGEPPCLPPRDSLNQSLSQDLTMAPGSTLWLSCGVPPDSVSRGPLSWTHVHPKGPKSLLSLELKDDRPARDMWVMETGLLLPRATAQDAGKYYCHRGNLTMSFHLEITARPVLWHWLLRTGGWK
- procedure.details: ELISA, coated human CD19-His
# key: entry, value: OD450 at 0.10 nM
Please state the figure in OD450; there is no need to write the unit.

F3.121.4-L2H2 (antibody, mouse IgG1, kappa, V domains shown, humanized antibody of F3.121.4, VL2+VH2, murine IgG1 constant regions) VH: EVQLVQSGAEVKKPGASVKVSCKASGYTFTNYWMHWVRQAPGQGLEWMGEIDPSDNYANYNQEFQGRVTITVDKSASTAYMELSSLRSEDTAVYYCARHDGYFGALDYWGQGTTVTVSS VL: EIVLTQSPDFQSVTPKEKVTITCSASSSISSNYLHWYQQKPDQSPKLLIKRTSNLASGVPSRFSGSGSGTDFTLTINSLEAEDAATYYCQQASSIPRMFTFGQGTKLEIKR	1.51

Okay, next one:
Any idea what its OD450 at 0.10 nM is? The binder is F3.121.4 (antibody, human IgG1, V domains shown, human-murine chimeric antibody, human IgG1 constant; also called chimeric antibody F3.121.4) VH: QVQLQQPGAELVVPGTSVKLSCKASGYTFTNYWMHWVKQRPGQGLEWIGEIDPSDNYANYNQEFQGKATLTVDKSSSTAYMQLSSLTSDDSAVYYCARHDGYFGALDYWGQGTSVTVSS VL: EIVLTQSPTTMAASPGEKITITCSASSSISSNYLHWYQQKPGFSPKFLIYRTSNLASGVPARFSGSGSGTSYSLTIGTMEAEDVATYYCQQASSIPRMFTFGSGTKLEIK
0.5
